Data origin: patent US9315463B2

Subject Of Test: human muscarinic M3 receptor (Homo sapiens (Human), UniProt P20309)
Sequence (P20309 whole entry): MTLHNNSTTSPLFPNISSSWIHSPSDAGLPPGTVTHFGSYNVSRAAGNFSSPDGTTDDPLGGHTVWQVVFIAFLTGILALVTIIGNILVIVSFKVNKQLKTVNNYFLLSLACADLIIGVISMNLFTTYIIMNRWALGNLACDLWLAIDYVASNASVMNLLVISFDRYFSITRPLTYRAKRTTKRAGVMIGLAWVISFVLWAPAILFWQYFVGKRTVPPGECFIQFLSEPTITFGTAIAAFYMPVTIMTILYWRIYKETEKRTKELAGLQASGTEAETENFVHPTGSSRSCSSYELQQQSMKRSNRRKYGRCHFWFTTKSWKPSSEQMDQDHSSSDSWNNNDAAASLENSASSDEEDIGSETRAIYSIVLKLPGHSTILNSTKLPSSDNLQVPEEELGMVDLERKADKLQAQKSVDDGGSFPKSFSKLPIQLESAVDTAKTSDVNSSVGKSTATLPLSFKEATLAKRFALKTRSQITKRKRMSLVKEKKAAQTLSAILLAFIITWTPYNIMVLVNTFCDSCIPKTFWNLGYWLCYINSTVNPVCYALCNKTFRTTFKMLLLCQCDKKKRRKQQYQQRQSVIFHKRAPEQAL
Assay: Human muscarinic M3 receptor binding assay ([3H]-NMS, CHO-K1 membranes)
Condition Summary: read-out: Binding IC50, nM M3, [3H]-NMS displacement
Description: Test 2: Human Muscarinic M1, M2, M3, M4 and M5Receptors Binding Assays The study of binding to human muscarinic M1, M2, M3, M4 and M5 receptors was performed using commercial membranes (Perkin Elmer) prepared from CHO-K1 cells. […] Non-specific binding (NSB) was measured in the presence of 1 μM atropine. […] The affinity of each test compound to the receptors was determined by using ten different concentrations ran in duplicate. […]

{"Molecule": "CN(CCCCCCCCCNC[C@H](O)c1ccc(O)c2[nH]c(=O)ccc12)C1CCC(OC(=O)C(O)(c2cccs2)c2cccs2)CC1 (stereo partly shown)", "IC50 [nM]": 0.2}

###

Subject Of Test: human adrenergic beta2 receptor (Homo sapiens (Human))
Assay: Human adrenergic β2 receptor binding assay (3H-CGP12177, Sf9 membranes)
Condition Summary: 3H-CGP12177 displacement, read-out: Binding IC50, nM β2
Measured Metric: log10 IC50 (log10 of the value in nM)

{"Compound Smiles": "COc1cc(NC(=O)CCN(C)[C@H]2CC[C@H](OC(=O)C(O)(c3cccs3)c3cccs3)CC2)c(Cl)cc1CCNC[C@H](O)c1ccc(O)c2[nH]c(=O)ccc12", "Subject Of Test": "human adrenergic beta2 receptor (Homo sapiens (Human))", "log10 IC50": 0.72}
{"Compound Smiles": "COc1cc(NC(=O)OCCN(C)[C@H]2CC[C@H](OC(=O)[C@](O)(c3cccs3)C3CCCC3)CC2)c(Cl)cc1CNC[C@H](O)c1ccc(O)c2[nH]c(=O)ccc12", "Subject Of Test": "human adrenergic beta2 receptor (Homo sapiens (Human))", "log10 IC50": 0.04}
{"Compound Smiles": "CN(CCC(=O)Nc1cc(F)c(CNC[C@H](O)c2ccc(O)c3[nH]c(=O)ccc23)cc1F)[C@H]1CC[C@H](OC(=O)C(O)(c2cccs2)c2cccs2)CC1", "Subject Of Test": "human adrenergic beta2 receptor (Homo sapiens (Human))", "log10 IC50": 1.11}
{"Compound Smiles": "COc1cc(NC(=O)CCN(C)[C@H]2CC[C@H](OC(=O)C(O)(c3cccs3)c3cccs3)CC2)c(F)cc1CNC[C@H](O)c1ccc(O)c2[nH]c(=O)ccc12", "Subject Of Test": "human adrenergic beta2 receptor (Homo sapiens (Human))", "log10 IC50": 0.68}
{"Compound Smiles": "COc1cc(NC(=O)OCCN(C)[C@H]2CC[C@H](OC(=O)C(O)(c3cccs3)c3cccs3)CC2)c(C#N)cc1CNC[C@H](O)c1ccc(O)c2[nH]c(=O)ccc12", "Subject Of Test": "human adrenergic beta2 receptor (Homo sapiens (Human))", "log10 IC50": 0.65}

###

Documented log10 of IC50 across a set of compounds
Subject Of Test: human adrenergic beta2 receptor (Homo sapiens (Human), UniProt P07550)
Sequence (P07550 whole entry): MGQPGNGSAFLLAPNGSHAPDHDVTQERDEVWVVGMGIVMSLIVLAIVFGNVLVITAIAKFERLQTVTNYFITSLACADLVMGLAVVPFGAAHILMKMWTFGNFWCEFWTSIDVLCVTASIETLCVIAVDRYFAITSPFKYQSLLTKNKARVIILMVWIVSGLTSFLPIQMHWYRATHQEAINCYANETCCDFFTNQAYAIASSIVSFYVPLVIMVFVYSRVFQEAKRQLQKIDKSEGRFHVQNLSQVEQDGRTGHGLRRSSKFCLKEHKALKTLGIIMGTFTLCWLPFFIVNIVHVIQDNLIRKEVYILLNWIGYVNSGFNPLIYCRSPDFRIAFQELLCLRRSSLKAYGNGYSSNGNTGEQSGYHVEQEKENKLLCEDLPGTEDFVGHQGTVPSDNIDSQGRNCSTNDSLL
Assay: Human adrenergic β2 receptor binding assay (3H-CGP12177, Sf9 membranes)
Condition Summary: 3H-CGP12177 displacement, read-out: Binding IC50, nM β2
Measured Metric: log10 of IC50 (log10 of the value in nM)

{"Compound": "COc1cc(NC(=O)CCN(C)[C@H]2CC[C@](C)(OC(=O)C(O)(c3cccs3)c3cccs3)CC2)c(Cl)cc1CNC[C@H](O)c1ccc(O)c2[nH]c(=O)ccc12 [Example 13]", "log10 of IC50": 0.34}
{"Compound": "COc1cc(NC(=O)OCCN(C)[C@H]2CC[C@H](OC(=O)C(O)(c3cccs3)c3cccs3)CC2)c(Cl)cc1CNC[C@H](O)c1ccc(O)c2c1OCC(=O)N2 [Example 26]", "log10 of IC50": -0.42}
{"Compound": "COc1cc(NC(=O)OCCN(C)[C@H]2CC[C@H](OC(=O)[C@](O)(c3ccccc3)C3CCCC3)CC2)c(Cl)cc1CNC[C@H](O)c1ccc(O)c2[nH]c(=O)ccc12 [Example 28]", "log10 of IC50": 0.11}
{"Compound": "COc1cc(OCCCCN(C)[C@H]2CC[C@H](OC(=O)C(O)(c3cccs3)c3cccs3)CC2)c(Cl)cc1CNC[C@H](O)c1ccc(O)c2[nH]c(=O)ccc12 [Example 25]", "log10 of IC50": 0.98}
{"Compound": "COc1cc(NC(=O)OCCN(C)[C@H]2CC[C@H](OC(=O)C(O)(c3cccs3)c3cccs3)CC2)c(Cl)cc1CNC[C@H](O)c1ccc(O)c2[nH]c(=O)ccc12 [Example 12]", "log10 of IC50": 0.20}
